- SUBJECT_OF_TEST: ERα (Homo sapiens)
- Construct: host or cells: MCF7
- EXPERIMENT: Estrogen receptor degradation activity: breast cancer cell ERα in cell western assay (MCF7 cells)
- Format: cell-based
- EXPERIMENTAL_SETUP: 4 hours post compound addition, concentration which degrades 50% of the estrogen receptor, read-out: Degradation IC50
REPORTED_METRIC: DC50
Answer format reminder: number followed by unit.

{"COMPOUND": "Cc1cc(C2=C(c3ccc(C=C4CN(CCCF)C4)cc3)c3ccc(C(=O)O)cc3CCC2)cc(C(F)(F)F)c1", "VAL": "4300 pM"}
{"COMPOUND": "COc1ccc(C(F)(F)F)cc1C1=C(c2ccc(C=C3CN(CCCF)C3)cc2)c2ccc(C(=O)O)cc2CCC1", "VAL": "3700 pM"}
{"COMPOUND": "O=C(O)c1ccc2c(c1)CCCC(c1cc(F)ccc1C(F)(F)F)=C2c1ccc(C=C2CN(CCCF)C2)cc1", "VAL": "500 pM"}
{"COMPOUND": "O=C(O)c1ccc2c(c1)CCCC(C13CCCC1C3)=C2c1ccc(C=C2CN(CCCF)C2)cc1 (stereo not shown)", "VAL": "300 pM"}
{"COMPOUND": "CC1(C)CCCC(C2=C(c3ccc(C=C4CN(CCCF)C4)cc3)c3ccc(C(=O)O)cc3CCC2)C1 (single isomer, unassigned) [Example 172]", "VAL": "400 pM"}
{"COMPOUND": "O=C(O)c1ccc2c(c1)CCCC(c1ccc3c(c1F)CCC3)=C2c1ccc(C=C2CN(CCC(F)F)C2)cc1", "VAL": "1200 pM"}

Continue with the compound presented below.
Asked: Consider the compound shown here: `CCc1ccccc1C1=C(c2ccc(C=C3CN(CCCF)C3)cc2)c2ccc(C(=O)O)cc2CCC1` What is its recorded DC50?
Given back: 200 pM

----------
- SUBJECT_OF_TEST: ERα (Homo sapiens, UniProt P03372)
- Construct: host or cells: MCF7
- Sequence (P03372 whole entry): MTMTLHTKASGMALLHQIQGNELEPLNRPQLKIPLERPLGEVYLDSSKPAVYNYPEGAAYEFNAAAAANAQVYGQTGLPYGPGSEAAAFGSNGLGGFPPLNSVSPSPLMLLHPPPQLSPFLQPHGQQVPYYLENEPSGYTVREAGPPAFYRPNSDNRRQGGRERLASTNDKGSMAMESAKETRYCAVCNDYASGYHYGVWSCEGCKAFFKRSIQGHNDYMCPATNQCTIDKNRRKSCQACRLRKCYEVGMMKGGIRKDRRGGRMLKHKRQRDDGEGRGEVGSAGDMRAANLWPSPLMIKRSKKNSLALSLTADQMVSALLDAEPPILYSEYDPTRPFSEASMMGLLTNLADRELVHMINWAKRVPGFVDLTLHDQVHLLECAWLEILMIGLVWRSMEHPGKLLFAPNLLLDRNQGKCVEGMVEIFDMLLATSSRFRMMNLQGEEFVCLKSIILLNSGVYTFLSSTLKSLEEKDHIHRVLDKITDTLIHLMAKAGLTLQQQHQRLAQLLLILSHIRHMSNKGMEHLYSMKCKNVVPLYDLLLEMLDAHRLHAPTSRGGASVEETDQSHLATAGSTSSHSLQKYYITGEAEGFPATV
- EXPERIMENT: Estrogen receptor degradation activity: breast cancer cell ERα in cell western assay (MCF7 cells)
- Format: cell-based
- EXPERIMENTAL_SETUP: 4 hours post compound addition, concentration which degrades 50% of the estrogen receptor, read-out: Degradation IC50
DC50 overview
Record the value in nM, omitting the unit from your answer.

{"COMPOUND": "O=C(O)c1ccc2c(c1)CCCC(c1ccc(Cl)cc1C(F)(F)F)=C2c1ccc(C=C2CN(CCCF)C2)cc1 [Example 37]", "VALUE_UNIT": "nM", "VAL": 0.4}
{"COMPOUND": "Cc1cc(F)ccc1C1=C(c2cc(F)c(C=C3CN(CCCF)C3)cc2C)c2ccc(C(=O)O)cc2CCC1.Cl [Example 61, hydrochloride]", "VALUE_UNIT": "nM", "VAL": 0.8}
{"COMPOUND": "O=C(O)c1ccc2c(c1)CCCC(c1cccc(F)c1C(F)(F)F)=C2c1ccc(C=C2CN(CCCF)C2)cc1 [Example 24]", "VALUE_UNIT": "nM", "VAL": 0.2}
{"COMPOUND": "CC1(C)CCCC(C2=C(c3ncc(C=C4CN(CCCF)C4)cc3F)c3ccc(C(=O)O)cc3CCC2)C1 (racemic) [Example 186]", "VALUE_UNIT": "nM", "VAL": 1}

Asked: Consider the compound shown here: O=C(O)c1ccc2c(c1)CCCC(c1ccc(C(F)(F)F)cc1C(F)(F)F)=C2c1ccc(C=C2CN(CCCF)C2)cc1 [Example 16] What is its recorded DC50?
Given back: 0.4

Asked: Consider the compound shown here: O=C(O)c1ccc2c(c1)CCCC(c1ccc(F)cc1C1CC1)=C2c1ccc(C=C2CN(CCCF)C2)cc1 [Example 40] What is its recorded DC50?
Given back: 0.3

Asked: Consider the compound shown here: O=C(O)c1ccc2c(c1)CCCC(c1cccc(Cl)c1C(F)(F)F)=C2c1ccc(C=C2CN(CCC(F)(F)F)C2)cc1 [Example 107] What is its recorded DC50?
Given back: 1.3
